The reported measurements were obtained from patent US10357484B2.

- experimental.system: HDAC9 enzyme (Homo sapiens, UniProt Q9UKV0)
- Construct: transducing full length HDAC9 gene into Sf-9 insect cells; made in house; host or cells: Sf-9 insect cells
- Sequence (Q9UKV0 whole entry, species assumed): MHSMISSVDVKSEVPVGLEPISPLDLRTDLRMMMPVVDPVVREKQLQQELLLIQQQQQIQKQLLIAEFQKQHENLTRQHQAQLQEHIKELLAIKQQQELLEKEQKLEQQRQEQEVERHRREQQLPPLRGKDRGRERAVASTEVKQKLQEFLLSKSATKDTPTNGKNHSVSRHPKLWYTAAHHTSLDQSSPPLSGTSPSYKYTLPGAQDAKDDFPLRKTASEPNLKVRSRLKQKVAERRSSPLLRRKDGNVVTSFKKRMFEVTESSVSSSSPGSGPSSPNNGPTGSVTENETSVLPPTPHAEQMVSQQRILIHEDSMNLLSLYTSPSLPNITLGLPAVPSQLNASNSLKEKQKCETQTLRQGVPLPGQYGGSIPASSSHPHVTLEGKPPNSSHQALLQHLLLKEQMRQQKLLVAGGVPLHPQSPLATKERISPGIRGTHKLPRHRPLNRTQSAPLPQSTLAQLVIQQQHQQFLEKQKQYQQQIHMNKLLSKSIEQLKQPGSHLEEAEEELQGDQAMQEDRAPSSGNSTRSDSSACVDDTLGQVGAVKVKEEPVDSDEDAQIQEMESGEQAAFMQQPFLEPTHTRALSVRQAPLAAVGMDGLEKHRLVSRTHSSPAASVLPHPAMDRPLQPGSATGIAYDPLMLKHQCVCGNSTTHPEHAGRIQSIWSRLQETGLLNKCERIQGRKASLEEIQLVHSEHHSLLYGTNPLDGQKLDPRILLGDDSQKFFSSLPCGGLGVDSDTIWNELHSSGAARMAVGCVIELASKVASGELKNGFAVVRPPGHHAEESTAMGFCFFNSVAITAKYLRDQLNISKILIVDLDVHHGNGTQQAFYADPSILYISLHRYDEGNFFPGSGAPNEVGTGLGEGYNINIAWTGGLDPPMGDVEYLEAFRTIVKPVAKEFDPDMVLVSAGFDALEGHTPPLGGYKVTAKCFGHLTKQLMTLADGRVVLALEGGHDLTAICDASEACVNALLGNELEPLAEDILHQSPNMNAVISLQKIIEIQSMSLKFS
- assay.details: HDAC9 enzyme inhibitory assay (HDAC-Glo class IIa)
- Type: biochemical
- run.parameters: 1 μM test compound; wells without enzyme = 100% inhibition; read-out: HDAC9 inhibitory rate (%) (1 μM)
- Procedure: HDAC9 Enzyme Inhibitory Assay Enzyme was prepared by transducing full length HDAC9 gene into Sf-9 insect cells and purifying by Ni-NTA affinity column, and HDAC9 enzyme inhibitory activity was evaluated. Enzymes were used after preserved at −70° C. HDAC9 enzyme inhibitory activity of the test compound was measured using HDAC-Glo class IIa (Promega) according to the following experimental method. […]
// reported inhibition at 1 µM for each item listed

> print(dat)
                                   compound   measurement.label  recorded.result
1  N#Cc1cccc(CN2Cc3ccc(-c4noc(C(F)(F)F)n4)cc3C2=O)c1  inhibition at 1 µM              82%
2  COc1ccc([C@H](C)N2Cc3ccc(-c4noc(C(F)(F)F)n4)cc3C2=O)cc1  inhibition at 1 µM              89%

Request: Param item = COc1cc(CN2Cc3ccc(-c4noc(C(F)(F)F)n4)cc3C2=O)ccc1OCC1CCCO1 (centres unmarked) ; retrieve measured inhibition at 1 µM.
Response: 92%

Request: Now give it for CC(c1ccccc1)N1Cc2ncc(-c3noc(C(F)(F)F)n3)cc2C1=O (centres unmarked) too.
Response: 92%

Request: Now give it for N#Cc1ccc(CN2Cc3ccc(-c4noc(C(F)(F)F)n4)cc3C2=O)cc1 too.
Response: 74%

Request: Now give it for C[C@@H](c1cccc2ccccc12)N1Cc2ccc(-c3noc(C(F)(F)F)n3)cc2C1=O too.
Response: 82%

Request: Now give it for O=C1c2cc(-c3noc(C(F)(F)F)n3)ccc2CN1Cc1cccc(Oc2ccccc2)c1 too.
Response: 52%

Request: Now give it for Cc1cc(CN2Cc3ccc(-c4noc(C(F)(F)F)n4)cc3C2=O)nn1C too.
Response: 85%

###

- experimental.system: HDAC1 enzyme (Homo sapiens, UniProt Q13547)
- Construct: transducing full length HDAC1 and HDAC6 genes into Sf-9 insect cells; GST; purchased SignalChem; host or cells: Sf-9 insect cells
- Sequence (Q13547 whole entry): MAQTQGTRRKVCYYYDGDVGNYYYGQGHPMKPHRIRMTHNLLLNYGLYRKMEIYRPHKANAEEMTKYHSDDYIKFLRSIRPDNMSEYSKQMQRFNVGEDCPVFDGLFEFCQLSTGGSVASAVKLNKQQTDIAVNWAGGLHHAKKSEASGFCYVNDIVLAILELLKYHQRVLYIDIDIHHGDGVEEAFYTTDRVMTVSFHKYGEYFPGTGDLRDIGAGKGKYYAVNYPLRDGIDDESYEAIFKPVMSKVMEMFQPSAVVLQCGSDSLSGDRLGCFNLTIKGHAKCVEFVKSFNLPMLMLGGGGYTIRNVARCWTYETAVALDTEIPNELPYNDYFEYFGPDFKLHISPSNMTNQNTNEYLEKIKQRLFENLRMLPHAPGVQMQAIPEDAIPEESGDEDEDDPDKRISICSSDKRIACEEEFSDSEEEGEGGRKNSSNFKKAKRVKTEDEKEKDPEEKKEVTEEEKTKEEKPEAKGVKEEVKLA
- assay.details: HDAC1 enzyme inhibitory assay (HDAC-Glo I/II Assay kit)
- Format: biochemical
- run.parameters: 1 μM test compound; wells without enzyme = 100% inhibition; read-out: HDAC1 inhibitory rate (%) (1 μM)
Note to self: values exactly at 10% are Condition met. So inhibition at 1 µM at or above 10% is Condition met, below is Condition not met.

Solved entries:
> print(dat)
                                   molecule                       experimental.system   class.assignment
1  O=C1c2cc(-c3noc(C(F)(F)F)n3)ccc2CN1Cc1ccccc1Cl  HDAC1 enzyme (Homo sapiens, UniProt Q13547)      Condition met
2  O=C1c2cc(-c3noc(C(F)(F)F)n3)ccc2CN1Cc1ccccc1Oc1ccccc1  HDAC1 enzyme (Homo sapiens, UniProt Q13547)  Condition not met
3  O=C1c2cc(-c3noc(C(F)(F)F)n3)ccc2CN1Cc1cccc(Oc2ccccc2)c1  HDAC1 enzyme (Homo sapiens, UniProt Q13547)      Condition met
4  CC(C)(c1ccccc1)N1Cc2ncc(-c3noc(C(F)(F)F)n3)cc2C1=O  HDAC1 enzyme (Homo sapiens, UniProt Q13547)      Condition met

Request: Entry COc1cccc([C@H](C)N2Cc3ccc(-c4noc(C(F)(F)F)n4)cc3C2=O)c1 : is its inhibition at 1 µM no less than 10%?
Response: Condition met

Request: Now give it for O=C1c2cc(-c3noc(C(F)(F)F)n3)ccc2CN1Cc1ccccc1OC(F)(F)F too.
Response: Condition not met

Request: Now give it for O=C1c2cc(-c3noc(C(F)(F)F)n3)ccc2CN1Cc1ccccc1F too.
Response: Condition met

Request: Now give it for CC(c1cccnc1)N1Cc2ncc(-c3noc(C(F)(F)F)n3)cc2C1=O (centres unmarked) too.
Response: Condition met

###

- experimental.system: HDAC9 enzyme (Homo sapiens, UniProt Q9UKV0)
- Construct: transducing full length HDAC9 gene into Sf-9 insect cells; made in house; host or cells: Sf-9 insect cells
- assay.details: HDAC9 enzyme inhibitory assay (HDAC-Glo class IIa)
- Format: biochemical
- run.parameters: 1 μM test compound; wells without enzyme = 100% inhibition; read-out: HDAC9 inhibitory rate (%) (1 μM)
measurement.label: inhibition at 1 µM (%)
The reply should be a number in %, with the unit left off.

Take a look at these entries with their results.
> print(dat)
                                   molecule                       experimental.system  unit.annotation  recorded.result
1  C[C@H](c1ccccc1)N1Cc2ccc(-c3noc(C(F)(F)F)n3)cc2C1=O [Example 7]  HDAC9 enzyme (Homo sapiens, UniProt Q9UKV0)                %               78
2  O=C1c2cc(-c3noc(C(F)(F)F)n3)ccc2CN1Cc1ccccc1OC(F)(F)F [Example 26]  HDAC9 enzyme (Homo sapiens, UniProt Q9UKV0)                %               58
3  COc1ccccc1CN1Cc2ccc(-c3noc(C(F)(F)F)n3)cc2C1=O [Example 12]  HDAC9 enzyme (Homo sapiens, UniProt Q9UKV0)                %               76
4  CC(c1ccccn1)N1Cc2ccc(-c3noc(C(F)(F)F)n3)cc2C1=O (centres unmarked) [Example 34]  HDAC9 enzyme (Homo sapiens, UniProt Q9UKV0)                %               79
5  C[C@@H](c1ccccc1)N1Cc2ncc(-c3noc(C(F)(F)F)n3)cc2C1=O [Example 40]  HDAC9 enzyme (Homo sapiens, UniProt Q9UKV0)                %               93

Request: Param item = C[C@@H](c1ccc(F)cc1F)N1Cc2ccc(-c3noc(C(F)(F)F)n3)cc2C1=O [Example 17] ; retrieve measured inhibition at 1 µM.
Response: 74

Request: Now give it for C[C@@H](c1ccc(F)cc1)N1Cc2ccc(-c3noc(C(F)(F)F)n3)cc2C1=O [Example 13] too.
Response: 79

Request: Now give it for O=C1c2cc(-c3noc(C(F)(F)F)n3)ccc2CN1Cc1nccs1 [Example 36] too.
Response: 81

###

- experimental.system: HDAC9 enzyme (Homo sapiens)
- Construct: transducing full length HDAC9 gene into Sf-9 insect cells; made in house; host or cells: Sf-9 insect cells
- assay.details: HDAC9 enzyme inhibitory assay (HDAC-Glo class IIa)
- Assay type: biochemical
- run.parameters: 1 μM test compound; wells without enzyme = 100% inhibition; read-out: HDAC9 inhibitory rate (%) (1 μM)
measurement.label: inhibition at 1 µM
# do not omit the unit; it follows the number

Take a look at these entries with their results.
> print(dat)
                                   compound          experimental.system   measurement.label  recorded.result
1  O=C1c2cc(-c3noc(C(F)(F)F)n3)ccc2CN1Cc1ccccn1 [Example 32]  HDAC9 enzyme (Homo sapiens)  inhibition at 1 µM              77%
2  O=C1c2cc(-c3noc(C(F)(F)F)n3)ccc2CN1Cc1c(F)cccc1F [Example 27]  HDAC9 enzyme (Homo sapiens)  inhibition at 1 µM              76%
3  C[C@@H](c1ccc(F)cc1OC(F)F)N1Cc2ccc(-c3noc(C(F)(F)F)n3)cc2C1=O [Example 21]  HDAC9 enzyme (Homo sapiens)  inhibition at 1 µM              73%
4  C[C@H](c1cccc2ccccc12)N1Cc2ccc(-c3noc(C(F)(F)F)n3)cc2C1=O [Example 23]  HDAC9 enzyme (Homo sapiens)  inhibition at 1 µM              28%
5  COc1cc(F)ccc1[C@H](C)N1Cc2ccc(-c3noc(C(F)(F)F)n3)cc2C1=O [Example 20]  HDAC9 enzyme (Homo sapiens)  inhibition at 1 µM              66%

Request: Param item = CN(c1ncccc1CN1Cc2ccc(-c3noc(C(F)(F)F)n3)cc2C1=O)S(C)(=O)=O [Example 35] ; retrieve measured inhibition at 1 µM.
Response: 61%

Request: Now give it for COc1cccc([C@H](C)N2Cc3ccc(-c4noc(C(F)(F)F)n4)cc3C2=O)c1 [Example 19] too.
Response: 87%

Request: Now give it for COc1ncccc1CN1Cc2ccc(-c3noc(C(F)(F)F)n3)cc2C1=O [Example 33] too.
Response: 77%

Request: Now give it for C[C@@H](c1cccc(F)c1)N1Cc2ccc(-c3noc(C(F)(F)F)n3)cc2C1=O [Example 16] too.
Response: 85%

Request: Now give it for O=C1c2cc(-c3noc(C(F)(F)F)n3)ccc2CN1Cc1ccccc1Oc1ccccc1 [Example 11] too.
Response: 5%

Request: Now give it for CS(=O)(=O)c1ccc(CN2Cc3ccc(-c4noc(C(F)(F)F)n4)cc3C2=O)cc1 [Example 30] too.
Response: 83%
